Experiment: DRUGMATRIX: Nicotinic Acetylcholine radioligand binding (ligand: [125I] Epibatidine)
Format: cell membranes, Membrane
Settings: imr-32; Not Active = under 50% inhibition at 10 µM

{"Molecule": "C[C@H]1C[C@@H]2[C@H]([C@@H](O)C[C@@]3(C)[C@H]2CC[C@]3(O)C(=O)CO)[C@@]2(C)C=CC(=O)C=C12", "IC50": "Not Active"}
{"Molecule": "CN(C/C=C/C#CC(C)(C)C)Cc1cccc2ccccc12", "IC50": "Not Active"}
{"Molecule": "Cc1nnc2n1-c1ccc(Cl)cc1C(c1ccccc1)=NC2", "IC50": "Not Active"}
{"Molecule": "Nc1ccn([C@@H]2O[C@H](CO)[C@@H](O)[C@@H]2O)c(=O)n1", "IC50": "Not Active"}
{"Molecule": "Nc1ccc2c3c(cccc13)C(=O)NC2=O", "IC50": "Not Active"}
{"Molecule": "COc1ccc2cc3[n+](cc2c1OC)CCc1cc2c(cc1-3)OCO2.[Cl-] [BERBERINE CHLORIDE]", "IC50": "Not Active"}

// provenance: ChEMBL document CHEMBL1909046
